target: T1, MMP-26 (human); experiment: cell-based or functional assay
T1 sequence: ASDF
MEASURED_ATTRIBUTE: % Inhibition of JEG-3 cell invasion, 5 µg/ml (further test) (%)
Give the value, in units of %, as a plain number.

[Q] Return % Inhibition of JEG-3 cell invasion, 5 µg/ml (further test) for the following binder: D6-orig (antibody, human IgG4, V domains shown) VH: EVQLLESGGGLVQPGGSLRLSCAASGFTFSMYSMRWVRQAPGKGLEWVSSIYPSGGSTEYADSVKGRFTISRDNSKNTLYLQMNSLRAEDTAVYYCAREGGENDYWGQGTLVTVSS VL: DIQMTQSPLSLSASVGDRVAITCRASQSIDTYLNWYQQKPGKAPKLLIYAASKLEDGVPSRFSGSGTGTDFTLTIRSLQPEDFASYFCQQSYSSPGITFGPGTKVEIKR
[A] 55

[Q] Could you please provide reported % Inhibition of JEG-3 cell invasion, 5 µg/ml (further test) for C12 (antibody, V domains shown) VH: EVQLLESGGGLVQPGGSLRLSCAASGFTFSAYNMMWVRQAPGKGLEWVSRIYPSGGYTLYADSVKGRFTISRDNSKNTLYLQMNSLRAEDTAVYYCARQKLMIRAVRPFDYWGQGTLVTVSS VL: QSELTQPPSVSVSPAQTASITCSGDKLGDKYACWYQQKPGQSPVLVIYEDTKRPSGIPERFSGSNSGNTATLTISGTQVMDEADYYCQVWDSSTAVFGGGTKLTVLG ? Thanks!
[A] 35

[Q] Tell us which % Inhibition of JEG-3 cell invasion, 5 µg/ml (further test) value is on record for A1-orig (antibody, human IgG4, V domains shown) VH: EVQLLESGGGLVQPGGSLRLSCAASGFTFSYYRMSWVRQAPGKGLEWVSSIGPSGGDTLYADSVKGRFTISRDNSKNTLYLQMNSLRAEDTAVYYCARSFSSGPYYFDYWGQGTLVTVSS VL: QSVLTQPPSASGTPGQRVIISCSGSSSNIGSHYVHWYQQVPGTAPKLLIYRNGQRPSGVPDRFSGFKSGTSASLAISGLRSEDEANYYCATWDDSVLFGGGTTLTVLG
[A] 58
